Collected IC50 values appear next to each entry.
- System: 873145-292-R-J1-PDC complex spheroid viability
- method_notes: Anticancer human tumor 873145-292-R-J1-PDC patient-derived renal clear cell carcinoma cell line growth inhibition [POLQ]
- setup_conditions: curve of first compound; second compound 3.16 µM

Take a look at these entries with their results.
>  <compound>
COc1cccc2c1C(=O)c1c(O)c3c(c(O)c1C2=O)CC(O)(C(=O)CO)CC3OC1CC(N)C(O)C(C)O1 (stereo not drawn) + COC1C(OC(N)=O)C(O)C(Oc2ccc3c(O)c(NC(=O)c4ccc(O)c(CC=C(C)C)c4)c(=O)oc3c2C)OC1(C)C

>  <quantity_name>
IC50

>  <assay_result>
1450 nM

$$$$
>  <compound>
C=CCn1c(=O)c2cnc(Nc3ccc(N4CCN(C)CC4)cc3)nc2n1-c1cccc(C(C)(C)O)n1 + Nc1ccc(C#CCN(C(=O)Cc2ncc(C(F)(F)F)cc2C(F)(F)F)c2ccc(F)cc2)nn1

>  <quantity_name>
IC50

>  <assay_result>
> 1000 nM

$$$$

Next up:
Here CCCS(=O)(=O)Nc1ccc(F)c(C(=O)c2c[nH]c3ncc(-c4ccc(Cl)cc4)cc23)c1F + COC1C(OC(N)=O)C(O)C(Oc2ccc3c(O)c(NC(=O)c4ccc(O)c(CC=C(C)C)c4)c(=O)oc3c2C)OC1(C)C was tested on 873145-292-R-J1-PDC complex spheroid viability, and its IC50 came to > 10000 nM

====

- Test system: 873145-292-R-J1-PDC complex spheroid viability
- method_notes: Anticancer human tumor 873145-292-R-J1-PDC cell line growth inhibition [POLQ];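 note: spheroids exposed to compounds for 7 days before viability readout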;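 for viability, T/C: luminescence signal used as surrogate for viable cell content; 100% = DMSO vehicle control viability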
- setup_conditions: second compound 10 µM; first compound 0.01 µM; stronger effect = lower value
quantity_name: viability, T/C (%)
Dear colleague, please return just the value in %, with no unit written.

Take a look at these entries with their results.
>  <molecule>
C=CCn1c(=O)c2cnc(Nc3ccc(N4CCN(C)CC4)cc3)nc2n1-c1cccc(C(C)(C)O)n1 + Cc1cccc(N(C)C(=O)C2C(O)CCN2c2nc(C)cc(C(F)(F)F)c2C#N)c1

>  <system_tested>
873145-292-R-J1-PDC complex spheroid viability

>  <unit_spec>
%

>  <viability, T/C>
97.2

$$$$
>  <molecule>
C=CCn1c(=O)c2cnc(Nc3ccc(N4CCN(C)CC4)cc3)nc2n1-c1cccc(C(C)(C)O)n1 + Nc1ccc(C#CCN(C(=O)Cc2ncc(C(F)(F)F)cc2C(F)(F)F)c2ccc(F)cc2)nn1

>  <system_tested>
873145-292-R-J1-PDC complex spheroid viability

>  <unit_spec>
%

>  <viability, T/C>
106

$$$$

Reported viability, T/C ( CC[C@@]1(O)C(=O)OCc2c1cc1n(c2=O)Cc2cc3c(CN(C)C)c(O)ccc3nc2-1 + Cc1cccc(N(C)C(=O)C2C(O)CCN2c2nc(C)cc(C(F)(F)F)c2C#N)c1 ) = 98.8

====

- System: 873145-292-R-J1-PDC complex spheroid viability
- method_notes: Anticancer human tumor 873145-292-R-J1-PDC cell line growth inhibition [POLQ];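 note: spheroids exposed to compounds for 7 days before viability readout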;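 for viability, T/C: luminescence signal used as surrogate for viable cell content; 100% = DMSO vehicle control viability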
- setup_conditions: second compound 10 µM; first compound 0.316 µM; stronger effect = lower value
Just a reminder that ties go to Not fulfilled: only viability, T/C strictly below 90% counts as Fulfilled.

These recorded examples may help you get a feel for the data.
>  <compound>
O=C(Nc1ccc(O)c(NS(=O)(=O)c2ccc(F)cc2)c1)c1ccc(-c2ccccc2)cc1 + Cc1cccc(N(C)C(=O)C2C(O)CCN2c2nc(C)cc(C(F)(F)F)c2C#N)c1

>  <discrete_label>
Not fulfilled

$$$$
>  <compound>
CCc1c2c(nc3ccc(O)cc13)-c1cc3c(c(=O)n1C2)COC(=O)[C@]3(O)CC + Cc1cccc(N(C)C(=O)C2C(O)CCN2c2nc(C)cc(C(F)(F)F)c2C#N)c1

>  <discrete_label>
Fulfilled

$$$$
>  <compound>
C=CC(=O)N1CCN(c2nc(=O)n(-c3c(C)ccnc3C(C)C)c3nc(-c4c(O)cccc4F)c(F)cc23)C(C)C1 (stereo unspecified) + Cc1cccc(N(C)C(=O)C2C(O)CCN2c2nc(C)cc(C(F)(F)F)c2C#N)c1

>  <discrete_label>
Not fulfilled

$$$$

Q. Consider COc1ccc([C@@H](O)c2cc(-c3ncnc4cc(N5CCOCC5)ccc34)c(F)cc2Cl)nn1 + Nc1ccc(C#CCN(C(=O)Cc2ncc(C(F)(F)F)cc2C(F)(F)F)c2ccc(F)cc2)nn1 . Does its viability, T/C lie strictly below 90%?
A. Fulfilled

Q. Consider C#Cc1c(F)ccc2cc(O)cc(-c3ncc4c(N5CC6CCC(C5)N6)nc(OCC56CCCN5CC(F)C6)nc4c3F)c12 (stereo unspecified) + Nc1ccc(C#CCN(C(=O)Cc2ncc(C(F)(F)F)cc2C(F)(F)F)c2ccc(F)cc2)nn1 . Does its viability, T/C lie strictly below 90%?
A. Not fulfilled

Q. Consider CCCS(=O)(=O)Nc1ccc(F)c(C(=O)c2c[nH]c3ncc(-c4ccc(Cl)cc4)cc23)c1F + Nc1ccc(C#CCN(C(=O)Cc2ncc(C(F)(F)F)cc2C(F)(F)F)c2ccc(F)cc2)nn1 . Does its viability, T/C lie strictly below 90%?
A. Not fulfilled
